Ref: BindingDB's records for doi:10.1021/jm960697s

Protein target, amino acids: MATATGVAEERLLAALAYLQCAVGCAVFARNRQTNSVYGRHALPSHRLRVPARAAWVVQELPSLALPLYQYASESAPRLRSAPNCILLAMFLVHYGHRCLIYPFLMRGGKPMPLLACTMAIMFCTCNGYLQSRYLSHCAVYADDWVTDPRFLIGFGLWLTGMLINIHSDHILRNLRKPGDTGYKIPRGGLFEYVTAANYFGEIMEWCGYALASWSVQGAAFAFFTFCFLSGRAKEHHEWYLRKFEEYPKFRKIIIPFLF
Attribute Measured: Ki

So, C[C@]12CCC(=O)C(Cl)C1=NCC1C2CC[C@@]2(C)C1CC[C@@H]2C(=O)Nc1cc(C(F)(F)F)ccc1C(F)(F)F (stereo partly specified) ? Its Ki was 0.2 nM
